Target: T1, Murine B7-H4 ECD-Flag-His10 (monomeric) (mouse, UniProt Q7TSP5 25-257)
T1 construct: extracellular domain; also called FlagHis10 murine B7-H4
T1 sequence (looked up): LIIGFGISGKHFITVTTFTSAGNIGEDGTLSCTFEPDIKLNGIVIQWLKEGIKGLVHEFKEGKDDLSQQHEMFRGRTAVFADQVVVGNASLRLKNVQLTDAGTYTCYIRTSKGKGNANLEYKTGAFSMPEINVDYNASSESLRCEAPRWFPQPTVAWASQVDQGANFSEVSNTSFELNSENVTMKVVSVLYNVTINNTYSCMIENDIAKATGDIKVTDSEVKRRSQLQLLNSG
Assay: Octet BLI, hIgG1 on Protein G (n = 1)
// NB: equality with 500 nM counts as N; only Kd strictly below is Y

binder: ZY0EOB-F05 human IgG1 (antibody, V domains shown) VH: QVQLQESGPGLVKPSQTLSLTCTVSDGSISSGGYYWSWIRQHPGKGLEWIGNIYYSGSTYYNPSLKSRVTISVDTSKNQFSLKLNSVTAADTAVYYCATEKALATVTPSGYENYYTVDVWGQGTTVTVSS VL: DIQLTQSPSFLSASVGDRVTITCWASQGISSYLAWYQQKPGKAPKLLIYAASTLQSGVPSRFSGSGSGTEFTLTISSLQPEDFATYYCQHLNSYPLTFGGGTKVEIK
assigned_class: Y

Quick check: Kd of ZY0EO5-E07 human IgG1 (antibody, V domains shown, also called ZY0E05-E07; E05-E07) VH: QVQLQESGPGLVKPSQTLSLTCTVSGGSISSGGYYWSWIRQHPGKGLEWIGNIYYSGSTYYNPSLKSRVTISVDTSKNQFSLKLSSVTAADTAVYYCAREKALASVIPSGYENYYVVDVWGQGTTVTVSS VL: DIQLTQSPSFLSASVGGRVTITCWASQGIAGYLAWYQQKPGKAPKLLIYAASTLQSGVPSRFSGSGSGTEFTLTISSLQPEDFATYYCQHLNSYPLTFGGGTKVEIK under 500 nM?
Y

Quick check: Kd of ZY0EQD-E02 human IgG1 (antibody, V domains shown) VH: QVQLQQWGAGLLKPSETLSLTCAVYGGSFSGYYWNWIRQPPGKGLEWIGEINHSGSTSYNPSLKSRVTISVDTSKNQFSLKLSSVTAADTAVYYCARVLYNWNVDSWGQGTLVTVSS VL: DIQMTQSPSSLSASVGDRVTITCRASQDIRNDVGWYQQKPGKAPKRLIYAASRLQSGVPSRFSGSGSGTEFTLTISSLQPEDFATYYCLQHNSYPRTFGQGTKVEIK under 500 nM?
N

Quick check: Kd of ZY0EP0-C07 human IgG1 (antibody, V domains shown, also called ZY0EPO-C07) VH: QVQLVESGGVLVKPGGSLRLSCAASGFTLSDYYMSWIRQAPGMGLEWVSYISSSGSTIYYTDSVKGRFTISRDSAKNSLYLQMNSLRAEDTAVYYCARDGVGFDYWGQGTLVTVSS VL: EIVLTQSPGTLSLFPGERATLSCRASQSVSSSYLAWYQQKPGQSPRLLIYAASSRATGIPDRFSGSGSGTDFTLTISRLEPEDFAVYYCQQYGSSPLYTFGQGTKLEIK under 500 nM?
Y
